Entry source: ChEMBL document CHEMBL2417377

target: Scaffold protein ILK (Homo sapiens) (UniProt Q13418); assay: Inhibition of ILK in human PC3 cell lysates at 10 uM using desthiobiotin-tagged ATP probe AX9989 followed by trypsinization by LC/MS analysis; details: PC-3
Sequence (Q13418 whole entry): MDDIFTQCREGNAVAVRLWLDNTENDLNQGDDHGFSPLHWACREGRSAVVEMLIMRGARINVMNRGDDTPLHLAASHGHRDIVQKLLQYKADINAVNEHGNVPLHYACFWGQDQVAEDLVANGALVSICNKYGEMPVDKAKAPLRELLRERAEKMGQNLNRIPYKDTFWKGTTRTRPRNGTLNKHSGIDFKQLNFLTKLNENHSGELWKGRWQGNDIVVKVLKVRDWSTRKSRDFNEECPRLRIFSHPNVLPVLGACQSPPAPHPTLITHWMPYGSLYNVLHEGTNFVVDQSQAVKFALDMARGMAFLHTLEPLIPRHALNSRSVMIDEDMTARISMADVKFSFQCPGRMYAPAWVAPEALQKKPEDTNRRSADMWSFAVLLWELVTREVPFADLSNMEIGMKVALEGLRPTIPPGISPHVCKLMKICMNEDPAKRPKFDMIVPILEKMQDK
Would you kindly list inhibition for each of these compounds?

Please report the recorded inhibition for C[C@H](NC(=O)c1ccc2nc(N[C@H]3CC[C@H](O)CC3)c3nccn3c2c1)c1ccccc1 .
< 35%

Please report the recorded inhibition for NC(=O)c1ccc2nc(N[C@H]3CC[C@H](O)CC3)c3nccn3c2c1 .
< 35%

Please report the recorded inhibition for O=C(NC1(c2ccccc2)CC1)c1ccc2nc(N[C@H]3CC[C@H](O)CC3)c3nccn3c2c1 .
< 35%

Please report the recorded inhibition for CCC[C@@H](NC(=O)c1ccc2nc(N[C@H]3CC[C@H](O)CC3)c3nccn3c2c1)c1ccccc1 .
< 35%

Please report the recorded inhibition for O=C(O)c1ccc2nc(N[C@H]3CC[C@H](O)CC3)c3nccn3c2c1 .
< 35%

Please report the recorded inhibition for CC(C)(NC(=O)c1ccc2nc(N[C@H]3CC[C@H](O)CC3)c3nccn3c2c1)c1ccccc1 .
< 35%

Please report the recorded inhibition for O=C(NC1(c2ccc(F)cc2)CC1)c1ccc2nc(N[C@H]3CC[C@H](O)CC3)c3nccn3c2c1 .
< 35%

Please report the recorded inhibition for O=C(N[C@H](CO)c1ccccc1)c1ccc2nc(N[C@H]3CC[C@H](O)CC3)c3nccn3c2c1 .
< 35%

* * *

biological target: Serine/threonine-protein kinase MRCK beta (Homo sapiens) (UniProt Q9Y5S2); test: Inhibition of MRCKbeta in human PC3 cell lysates at 10 uM using desthiobiotin-tagged ATP probe AX9989 followed by trypsinization by LC/MS analysis; conditions: PC-3
Sequence (Q9Y5S2 whole entry): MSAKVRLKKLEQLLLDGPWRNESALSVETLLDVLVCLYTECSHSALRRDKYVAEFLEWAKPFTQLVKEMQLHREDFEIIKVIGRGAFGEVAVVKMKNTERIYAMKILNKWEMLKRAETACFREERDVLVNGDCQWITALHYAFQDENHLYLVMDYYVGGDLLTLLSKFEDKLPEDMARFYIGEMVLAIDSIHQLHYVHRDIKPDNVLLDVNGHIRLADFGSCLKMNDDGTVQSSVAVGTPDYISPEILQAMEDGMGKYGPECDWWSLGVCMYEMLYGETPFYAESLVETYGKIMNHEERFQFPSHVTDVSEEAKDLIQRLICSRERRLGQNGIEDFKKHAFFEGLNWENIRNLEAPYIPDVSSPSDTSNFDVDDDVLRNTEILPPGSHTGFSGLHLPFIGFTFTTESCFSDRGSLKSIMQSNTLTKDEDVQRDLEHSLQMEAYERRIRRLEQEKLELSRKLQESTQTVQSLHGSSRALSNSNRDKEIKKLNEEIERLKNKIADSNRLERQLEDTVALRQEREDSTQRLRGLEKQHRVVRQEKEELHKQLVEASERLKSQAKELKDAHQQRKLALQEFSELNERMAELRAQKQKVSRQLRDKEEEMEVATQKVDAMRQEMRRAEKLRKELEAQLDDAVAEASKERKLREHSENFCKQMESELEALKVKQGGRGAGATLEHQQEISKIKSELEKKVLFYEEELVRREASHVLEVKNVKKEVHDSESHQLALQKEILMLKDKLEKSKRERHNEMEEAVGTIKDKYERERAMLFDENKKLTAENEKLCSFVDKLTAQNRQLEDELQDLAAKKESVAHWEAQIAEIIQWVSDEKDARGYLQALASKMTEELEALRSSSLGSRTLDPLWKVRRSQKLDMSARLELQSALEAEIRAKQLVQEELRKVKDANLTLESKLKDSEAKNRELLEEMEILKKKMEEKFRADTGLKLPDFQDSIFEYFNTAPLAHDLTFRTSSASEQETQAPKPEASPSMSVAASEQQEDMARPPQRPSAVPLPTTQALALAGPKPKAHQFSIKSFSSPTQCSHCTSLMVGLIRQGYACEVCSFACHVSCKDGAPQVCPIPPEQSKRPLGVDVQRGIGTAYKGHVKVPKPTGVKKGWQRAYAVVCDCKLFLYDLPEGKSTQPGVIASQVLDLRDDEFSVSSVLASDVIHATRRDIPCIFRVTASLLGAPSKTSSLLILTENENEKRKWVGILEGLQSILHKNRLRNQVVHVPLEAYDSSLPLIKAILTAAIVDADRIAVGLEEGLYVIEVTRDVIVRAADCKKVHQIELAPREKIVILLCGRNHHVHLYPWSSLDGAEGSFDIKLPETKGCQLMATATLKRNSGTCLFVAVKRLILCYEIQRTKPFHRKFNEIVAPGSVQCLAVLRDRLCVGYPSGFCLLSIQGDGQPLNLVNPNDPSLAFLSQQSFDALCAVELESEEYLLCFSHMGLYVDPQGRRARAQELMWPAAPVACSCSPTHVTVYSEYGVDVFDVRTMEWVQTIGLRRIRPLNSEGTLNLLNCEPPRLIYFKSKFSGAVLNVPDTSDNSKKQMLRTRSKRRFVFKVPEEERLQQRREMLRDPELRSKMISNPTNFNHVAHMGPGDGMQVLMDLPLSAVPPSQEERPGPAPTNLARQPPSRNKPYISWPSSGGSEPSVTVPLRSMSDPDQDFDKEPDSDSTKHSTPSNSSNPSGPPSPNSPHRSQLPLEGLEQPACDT
Would you kindly list inhibition for each of these molecules?

Please report the recorded inhibition for NC(=O)c1ccc2nc(N[C@H]3CC[C@H](O)CC3)c3nccn3c2c1 .
< 35%

Please report the recorded inhibition for O=C(NC1(c2ccccc2)CCC1)c1ccc2nc(N[C@H]3CC[C@H](O)CC3)c3nccn3c2c1 .
< 35%

Please report the recorded inhibition for CC[C@@H](NC(=O)c1ccc2nc(N[C@H]3CC[C@H](O)CC3)c3nccn3c2c1)c1ccccc1 .
< 35%

Please report the recorded inhibition for O=C(NC1(Cc2ccc(F)cc2)CC1)c1ccc2nc(N[C@H]3CC[C@H](O)CC3)c3nccn3c2c1 .
< 35%

Please report the recorded inhibition for CC(C)(NC(=O)c1ccc2nc(N[C@H]3CC[C@H](O)CC3)c3nccn3c2c1)c1ccccc1 .
< 35%

* * *

biological target: Epidermal growth factor receptor (Homo sapiens) (UniProt P00533); experiment: Inhibition of EGFR in human PC3 cell lysates at 10 uM using desthiobiotin-tagged ATP probe AX9989 followed by trypsinization by LC/MS analysis; settings: PC-3
Sequence (P00533 whole entry): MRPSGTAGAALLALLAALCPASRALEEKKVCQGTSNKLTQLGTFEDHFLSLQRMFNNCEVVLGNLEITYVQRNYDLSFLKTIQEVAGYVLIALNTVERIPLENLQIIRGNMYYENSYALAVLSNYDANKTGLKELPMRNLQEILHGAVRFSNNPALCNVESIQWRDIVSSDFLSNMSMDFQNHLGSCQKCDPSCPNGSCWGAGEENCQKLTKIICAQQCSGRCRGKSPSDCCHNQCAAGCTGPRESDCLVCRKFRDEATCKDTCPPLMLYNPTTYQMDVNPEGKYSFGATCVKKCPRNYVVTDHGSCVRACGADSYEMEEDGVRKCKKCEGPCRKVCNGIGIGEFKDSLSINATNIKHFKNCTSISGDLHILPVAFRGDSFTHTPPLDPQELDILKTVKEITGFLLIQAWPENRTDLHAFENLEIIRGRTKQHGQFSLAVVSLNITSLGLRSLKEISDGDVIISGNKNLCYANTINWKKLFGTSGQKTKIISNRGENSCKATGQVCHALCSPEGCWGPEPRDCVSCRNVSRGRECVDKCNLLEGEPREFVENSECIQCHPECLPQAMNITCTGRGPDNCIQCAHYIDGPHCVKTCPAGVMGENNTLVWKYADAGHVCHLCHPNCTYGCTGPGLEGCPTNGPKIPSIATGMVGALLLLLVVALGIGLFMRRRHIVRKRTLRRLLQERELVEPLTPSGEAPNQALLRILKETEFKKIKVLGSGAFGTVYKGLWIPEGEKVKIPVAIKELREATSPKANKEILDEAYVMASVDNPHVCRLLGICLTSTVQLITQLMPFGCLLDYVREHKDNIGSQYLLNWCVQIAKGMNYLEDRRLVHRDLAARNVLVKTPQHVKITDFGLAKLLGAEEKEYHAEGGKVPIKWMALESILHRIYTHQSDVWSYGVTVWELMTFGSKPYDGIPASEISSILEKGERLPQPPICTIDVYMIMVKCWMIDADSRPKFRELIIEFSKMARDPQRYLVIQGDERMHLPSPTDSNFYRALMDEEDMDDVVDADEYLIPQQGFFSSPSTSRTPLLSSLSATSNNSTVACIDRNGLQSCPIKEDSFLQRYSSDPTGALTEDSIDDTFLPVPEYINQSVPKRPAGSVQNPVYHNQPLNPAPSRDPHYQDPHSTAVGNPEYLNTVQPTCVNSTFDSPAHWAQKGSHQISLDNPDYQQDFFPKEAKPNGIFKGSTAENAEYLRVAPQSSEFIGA
experimental endpoint: inhibition

Provide value of inhibition for this record tested with Epidermal growth factor receptor (Homo sapiens) (UniProt P00533): O=C(NC1(c2ccc(F)cc2)CC1)c1ccc2nc(N[C@H]3CC[C@H](O)CC3)c3nccn3c2c1
< 35%

Provide value of inhibition for this record tested with Epidermal growth factor receptor (Homo sapiens) (UniProt P00533): C[C@@H](NC(=O)c1ccc2nc(N[C@H]3CC[C@H](O)CC3)c3nccn3c2c1)c1ccccc1
< 35%

Provide value of inhibition for this record tested with Epidermal growth factor receptor (Homo sapiens) (UniProt P00533): O=C(NC1(c2ccccc2)CC1)c1ccc2nc(N[C@H]3CC[C@H](O)CC3)c3nccn3c2c1
< 35%
